Reported IC50 for target or system Endothelin-Converting Enzyme (Sus scrofa, UniProt A0A8W4FBH0), by entry.
PARAMETER MEASURED: IC50 (nM)

ENTRY SMILES	PARAMETER MEASURED	ASSAY RESULT
CC(C)C[C@H](NP(=O)(O)CCc1ccccc1)C(=O)N[C@@H](Cc1c[nH]c2ccccc12)C(=O)O	IC50	200

1. CC(C)C[C@H](NP(=O)(O)CCc1ccccc1)C(=O)N[C@@H](Cc1ccccc1)C(=O)O
2. CC(C)[C@H](NP(=O)(O)CCc1ccccc1)C(=O)N[C@@H](Cc1c[nH]c2ccccc12)C(=O)O
3. CC[C@H](C)[C@H](NP(=O)(O)CCc1ccccc1)C(=O)N[C@@H](Cc1c[nH]c2ccccc12)C(=O)O
Problem: Returns the items ordered by IC50, from maximum to minimum. Response format: the labels, sorted as the prompt asks.
Solution: 1, 2, 3
(1: 5700 nM, 2: 2800 nM, 3: 1200 nM)
